assayed.target: T1, Mouse PD-1 extracellular domain, hFc tag (mouse, UniProt Q02242 25-169)
T1 construct: extracellular domain; also called mPro1.ECD.hFc; not shown: human Fc tag at C-terminus
T1 sequence (looked up): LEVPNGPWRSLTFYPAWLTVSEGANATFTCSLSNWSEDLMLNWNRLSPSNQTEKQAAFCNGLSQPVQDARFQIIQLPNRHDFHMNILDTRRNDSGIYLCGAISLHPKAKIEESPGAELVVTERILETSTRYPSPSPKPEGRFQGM
protocol.details: SPR Biacore 8K; PD-1-hFc captured on anti-human Fc chip, VHH injected; 1:1 fit
Param label: returns criterion met when Kd < 40 nM, returns criterion not met otherwise, including exact equality.

AP17R1-2H2-Z1-R1-4B2 (VHH, not shown: his- and c-Myc-tag from vector pETbac) VHH: QVQLVESGGGVVQPGGSLRLSCAASDSISSLVNMGWYRQAPGKQRELVALIANYITHYADFVKGRFTISRDNSKNTLYLQMNSLRAEDTAVYYCYARNIIVDYWGQGTLVTVSS: criterion met
AP17R1-2H2-Z1-R1-30D3 (VHH, not shown: his- and c-Myc-tag from vector pETbac) VHH: QVQLVESGGGVVQPGGSLRLSCAASDSIDSLVNMGWYRQAPGKQRELVALIANYITHYADFVKGRFTISRDNSKNTLYLQMNSLRAEDTAVYYCYARNIIEDYWGQGTLVTVSS: criterion not met
AP17R1-2H2-Z1-R1-14F1 (VHH, not shown: his- and c-Myc-tag from vector pETbac) VHH: QVQLVESGGGVVQPGGSLRLSCAASDSIDSLVNMGWYRQAPGKQRELVALIAYYITHYADFVKGRFTISRDNSKNTLYLQMNSLRAEDTAVYYCYARNIIVDYWGQGTLVTVSS: criterion met
AP17R1-2H2-Z1-R1-14A1 (VHH, not shown: his- and c-Myc-tag from vector pETbac) VHH: QVQLVESGGGVVQPGGSLRLSCAASDSIDSLVNMGWYRQAPGKQRELVALIATYITHYADFVKGRFTISRDNSKNTLYLQMNSLRAEDTAVYYCYARNIIVDYWGQGTLVTVSS: criterion met
AP17R1-2H2-Z1-R1-6E1 (VHH, not shown: his- and c-Myc-tag from vector pETbac) VHH: QVQLVESGGGVVQPGGSLRLSCAASDSIDSMVNMGWYRQAPGKQRELVALIANYITHYADFVKGRFTISRDNSKNTLYLQMNSLRAEDTAVYYCYARNIIVDYWGQGTLVTVSS: criterion not met

Q. Criterion: Kd strictly below 40 nM. Is it met by AP17R1-2H2-Z1-R1-29B2 (VHH, not shown: his- and c-Myc-tag from vector pETbac) VHH: QVQLVESGGGVVQPGGSLRLSCAASDSIDSLVNMGWYRQAPGKQRELVALIANYITHYADFVKGRFTISRDNSKNTLYLQMNSLRAEDTAVYYCYARNIRVDYWGQGTLVTVSS ?
A. criterion not met

Q. Another binder: AP17R1-2H2-Z1-R1-4D8 (VHH, not shown: his- and c-Myc-tag from vector pETbac) VHH: QVQLVESGGGVVQPGGSLRLSCAASDSIQSLVNMGWYRQAPGKQRELVALIANYITHYADFVKGRFTISRDNSKNTLYLQMNSLRAEDTAVYYCYARNIIVDYWGQGTLVTVSS
A. criterion met

// data source = patent US20240301067A1
